These data points were gathered from PubChem BioAssay (NCI).

- Test system: KM12 colon
- MEASUREMENT NOTES: NCI-60 one-dose screen, 48 h (100 = growth as untreated, 0 = no growth, -100 = all killed)
- MEASUREMENT CONDITIONS: 10 µM unless noted
About 83,000 compounds went through this panel and 20% of them were active in at least one assay; those are over-represented in the sample as a whole. Activity calls are given as the source filed them. How the source made its calls: active means growth percent below 10; inactive means the rest.
QUANTITY NAME: growth

Reference set (3 entries):
compound=Cc1ccc(S(=O)(=O)OCC(=O)Nc2ccc(C(=O)O)c(O)c2)cc1 measured_on="KM12 colon" quantity_name=growth assay_value="110% (inactive)"
compound=ClC1=C(Cl)C(Cl)=C(Cl)C1=Cc1ccc(Cl)cc1Cl measured_on="KM12 colon" quantity_name=growth assay_value="-78.9% (active)"
compound=COc1cccc(NC(=O)Cn2cc3c(=O)oc4ccccc4c3n2)c1 measured_on="KM12 colon" quantity_name=growth assay_value="100% (inactive)"

Consider the compound CCN(CC)CCSc1c2ccc(Cl)cc2nc2ccc(OC)cc12 and give its measured growth.
99.1% (inactive)

Quick one: Cc1ccc2nc(SCn3nnc4ccccc4c3=O)[nH]c2c1
161% (inactive)

Quick one: COC1=CC(c2ccc[nH]2)=N/C1=C\c1[nH]c(C)c(CCCn2cc(CCCCCCCCC[C@@H]3Cc4cc(O)ccc4C4CC[C@]5(C)[C@@H](O)CC[C@H]5C43)nn2)c1C (some centres undefined)
16.2% (inactive)

Quick one: COc1ccc(C(=O)N2CCN(C(=O)c3cc(OC)c(OC)c(OC)c3)CC2)cc1OCCCCOc1cc2c(cc1OC)C(=O)N1CCC[C@H]1C=N2
129% (inactive)

Quick one: COc1ccc(/C(=N/O)c2cc(F)c(F)c(OC)c2F)cc1O
29.3% (inactive)

Quick one: COc1ccc(-c2cn[nH]c2-c2cc(OC)c3c(c2)OCCO3)cc1
3.46% (active)
